These data points were gathered from patent US10428044B2.

Assayed system: (recombinant) catalytic domain of human Bub1 (amino acids 704-1085) (Homo sapiens (Human))
Sequence (O43683 704-1085): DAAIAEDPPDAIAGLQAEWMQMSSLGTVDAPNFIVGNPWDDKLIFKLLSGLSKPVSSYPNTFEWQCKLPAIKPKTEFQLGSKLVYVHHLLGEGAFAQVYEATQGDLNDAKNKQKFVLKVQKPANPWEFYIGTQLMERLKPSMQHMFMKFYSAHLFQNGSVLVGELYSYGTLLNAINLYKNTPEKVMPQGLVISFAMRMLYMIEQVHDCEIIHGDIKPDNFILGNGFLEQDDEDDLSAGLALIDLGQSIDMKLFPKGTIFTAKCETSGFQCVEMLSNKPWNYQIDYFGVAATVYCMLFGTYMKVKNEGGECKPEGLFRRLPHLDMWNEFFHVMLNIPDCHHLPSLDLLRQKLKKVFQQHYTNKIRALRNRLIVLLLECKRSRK
Experiment notes: Bub1 kinase assay (TR-FRET)
Settings: ATP 10 μM final, peptide substrate 1 μM final, 60 min at 22° C., read-out: Biological Assay: Bub1 kinase assay median IC50
pIC50: −log10 of the molar value.
Class MET: pIC50 at least 7. Class NOT MET: pIC50 below 7.

Please review the following examples before continuing.
> print(dat)
                                   compound  label.class
1  O=C(Nc1cc(-c2[nH]c3c(c2Nc2ccccc2)C(=O)CCC3)ccn1)c1cnn(Cc2ccccc2)c1          MET
2  CC1(C)CC(=O)c2c([nH]c(-c3ccnc(CO)c3)c2Nc2ccccc2)C1      NOT MET
3  CC(C)C1CC(=O)c2c([nH]c(-c3ccncc3)c2Nc2ccccc2)C1 (centres unmarked) [Example 7]          MET
4  CC1(C)CC(=O)c2c([nH]c(-c3ccncc3)c2Nc2cccc(OC(F)F)c2)C1      NOT MET
5  O=C1CCCc2[nH]c(-c3ccncc3Cl)c(Nc3ccccc3)c21          MET
6  CC1(C)CC(=O)c2c([nH]c(-c3ccncc3)c2Nc2ccc(F)c(F)c2)C1          MET
7  CC1(C)CC(=O)c2c([nH]c(-c3ccncc3)c2Nc2ccc(Cl)cc2)C1          MET
8  CC1(C)CC(=O)c2c([nH]c(-c3ccnc(NC(=O)[C@@H]4C[C@@H]4F)c3)c2Nc2ccccc2)C1          MET

[ask] Assess whether reported pIC50 for CC(Nc1cc(-c2[nH]c3c(c2Nc2ccccc2)C(=O)CC(C)(C)C3)ccn1)C(F)F (centres unmarked) sits at 7 or higher.
[reply] NOT MET

[ask] Assess whether reported pIC50 for CC1(C)CC(=O)c2c([nH]c(-c3ccncc3)c2Nc2cnc3ccccc3c2)C1 sits at 7 or higher.
[reply] NOT MET
